# Tested on: vancomycin-resistant Enterococcus (VRE) clinical isolates
# assay-text: Broth microdilution MIC, clinical VRE isolates
# Format: cell-based, E. faecium
# measurement-conditions: clinical isolate 27,085 VRE; 24 h, 0.08–40 μM; read-out: MIC 27,085 VRE
measurement-type: MIC (µM)
Numbers only; they are read as µM.

{"compound": "Cc1ccc(C(C)C)cc1.F[P-](F)(F)(F)(F)F.NC1C(c2cccnn2)OC(COC(=O)c2ccccc2)C(OC(=O)c2ccccc2)C1OC(=O)c1ccccc1.[Cl][Ru+] (mixture of isomers)", "tgt": "vancomycin-resistant Enterococcus (VRE) clinical isolates", "unit": "µM", "MIC": 10}

Entry `Cc1c(C)c(C)[c-](C)c1C.F[P-](F)(F)(F)(F)F.N[C@@H]1[C@@H](OCc2ccccc2)[C@H](OCc2ccccc2)[C@@H](COCc2ccccc2)O[C@H]1c1ccccn1.[Cl][Ir+2]` : reported MIC = ?
10

Same lookup for `Cc1ccc(C(C)C)cc1.F[P-](F)(F)(F)(F)F.N[C@@H]1[C@@H](OCc2ccccc2)[C@H](OCc2ccccc2)[C@@H](COCc2ccccc2)O[C@H]1c1ccccn1.[Cl][Ru+]` , please.
5

###

# System: A2780 cells
# assay-text: SRB binding assay, cytostasis, 48 h treatment
# Type: cell-based
# measurement-conditions: Homo sapiens, A2780, 48 h
pIC50: −log10 of the molar value.
measurement-type: pIC50

Entry `N[C@@H]1[C@@H](OCc2ccccc2)[C@H](OCc2ccccc2)[C@@H](COCc2ccccc2)O[C@H]1c1ccccn1` : reported pIC50 = ?
< 4.52

###

# System: methicillin-resistant Staphylococcus aureus (MRSA) clinical isolates
# assay-text: Broth microdilution MIC, clinical MRSA isolates
# Format: cell-based
# measurement-conditions: clinical isolate 24,328 MRSA; 24 h, 0.08–40 μM; read-out: MIC 24,328 MRSA
measurement-type: MIC (µM)
Numbers only; they are read as µM.

Solved cases below.
{"molecule": "Cc1ccc(C(C)C)cc1.F[P-](F)(F)(F)(F)F.N[C@@H]1[C@@H](OCc2ccccc2)[C@H](OCc2ccccc2)[C@@H](COCc2ccccc2)O[C@H]1c1ccccn1.[Cl][Ru+] [Ru-3a]", "tgt": "methicillin-resistant Staphylococcus aureus (MRSA) clinical isolates", "unit": "µM", "MIC": 5}
{"molecule": "Cc1c(C)c(C)[c-](C)c1C.F[P-](F)(F)(F)(F)F.N[C@@H]1[C@@H](OC(=O)c2ccccc2)[C@H](OC(=O)c2ccccc2)[C@@H](COC(=O)c2ccccc2)O[C@H]1c1ccccn1.[Cl][Ir+2] [Ir-7a]", "tgt": "methicillin-resistant Staphylococcus aureus (MRSA) clinical isolates", "unit": "µM", "MIC": 20}
{"molecule": "Cc1ccc(C(C)C)cc1.F[P-](F)(F)(F)(F)F.N[C@@H]1[C@@H](OC(=O)c2ccccc2)[C@H](OC(=O)c2ccccc2)[C@@H](COC(=O)c2ccccc2)O[C@H]1c1ccccn1.[Cl][Os+] [Os-7a]", "tgt": "methicillin-resistant Staphylococcus aureus (MRSA) clinical isolates", "unit": "µM", "MIC": 5}
{"molecule": "Cc1ccc(C(C)C)cc1.F[P-](F)(F)(F)(F)F.N[C@@H]1[C@@H](OC(=O)c2ccccc2)[C@H](OC(=O)c2ccccc2)[C@@H](COC(=O)c2ccccc2)O[C@H]1c1ccccn1.[Cl][Ru+] [Ru-7a]", "tgt": "methicillin-resistant Staphylococcus aureus (MRSA) clinical isolates", "unit": "µM", "MIC": 5}
{"molecule": "Cc1ccc(C(C)C)cc1.F[P-](F)(F)(F)(F)F.NC1C(c2cccnn2)OC(COC(=O)c2ccccc2)C(OC(=O)c2ccccc2)C1OC(=O)c1ccccc1.[Cl][Ru+] (mixture of isomers) [Ru-7b]", "tgt": "methicillin-resistant Staphylococcus aureus (MRSA) clinical isolates", "unit": "µM", "MIC": 20}
{"molecule": "Cc1c(C)c(C)[c-](C)c1C.F[P-](F)(F)(F)(F)F.NC1C(c2cccnn2)OC(COC(=O)c2ccccc2)C(OC(=O)c2ccccc2)C1OC(=O)c1ccccc1.[Cl][Ir+2] (mixture of isomers) [Ir-7b]", "tgt": "methicillin-resistant Staphylococcus aureus (MRSA) clinical isolates", "unit": "µM", "MIC": 40}

Query molecule follows.
Entry Cc1ccc(C(C)C)cc1.F[P-](F)(F)(F)(F)F.N[C@@H]1[C@@H](OCc2ccccc2)[C@H](OCc2ccccc2)[C@@H](COCc2ccccc2)O[C@H]1c1cnccn1.[Cl][Ru+] [Ru-3d] : reported MIC = ?
20
